Data credit: patent US20080044360A1

# measurement_target: T1, rat collagen, acid soluble, type I, rat tail (Upstate 08-115) (rat, UniProt P02454 152-1207; P02466 86-1125)
# T1 construct: tissue extract, gelled and dried in wells; also called dried rat collagen
# T1 sequence (P02454 152-1207, chain 1 of 2): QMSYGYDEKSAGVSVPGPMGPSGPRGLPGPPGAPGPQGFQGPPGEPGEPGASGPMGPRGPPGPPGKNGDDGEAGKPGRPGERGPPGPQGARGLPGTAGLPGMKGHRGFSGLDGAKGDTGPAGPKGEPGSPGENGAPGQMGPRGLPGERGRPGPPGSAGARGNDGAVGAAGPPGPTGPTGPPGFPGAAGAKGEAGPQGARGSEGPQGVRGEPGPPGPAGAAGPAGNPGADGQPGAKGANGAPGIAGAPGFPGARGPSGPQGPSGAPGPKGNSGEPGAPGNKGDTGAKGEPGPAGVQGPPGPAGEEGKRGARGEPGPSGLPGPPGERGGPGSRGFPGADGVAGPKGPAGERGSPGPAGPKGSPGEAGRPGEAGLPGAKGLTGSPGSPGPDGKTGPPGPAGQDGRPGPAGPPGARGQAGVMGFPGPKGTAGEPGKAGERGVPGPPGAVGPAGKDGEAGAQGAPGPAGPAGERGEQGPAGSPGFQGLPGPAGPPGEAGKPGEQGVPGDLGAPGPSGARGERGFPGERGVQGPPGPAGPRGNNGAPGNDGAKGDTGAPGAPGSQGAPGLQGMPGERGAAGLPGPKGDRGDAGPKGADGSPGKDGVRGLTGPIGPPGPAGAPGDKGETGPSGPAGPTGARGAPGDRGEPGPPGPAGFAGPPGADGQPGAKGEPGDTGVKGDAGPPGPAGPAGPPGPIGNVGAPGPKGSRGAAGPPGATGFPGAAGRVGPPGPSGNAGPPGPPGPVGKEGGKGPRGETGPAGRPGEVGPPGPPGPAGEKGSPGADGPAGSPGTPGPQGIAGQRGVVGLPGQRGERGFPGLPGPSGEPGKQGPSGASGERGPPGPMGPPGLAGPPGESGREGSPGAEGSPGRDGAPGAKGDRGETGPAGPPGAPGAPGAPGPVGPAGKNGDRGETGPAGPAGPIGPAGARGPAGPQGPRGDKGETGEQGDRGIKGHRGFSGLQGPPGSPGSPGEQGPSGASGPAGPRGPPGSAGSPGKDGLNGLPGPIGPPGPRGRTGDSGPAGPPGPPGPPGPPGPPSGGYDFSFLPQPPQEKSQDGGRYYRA
# T1 sequence (P02466 86-1125, chain 2 of 2): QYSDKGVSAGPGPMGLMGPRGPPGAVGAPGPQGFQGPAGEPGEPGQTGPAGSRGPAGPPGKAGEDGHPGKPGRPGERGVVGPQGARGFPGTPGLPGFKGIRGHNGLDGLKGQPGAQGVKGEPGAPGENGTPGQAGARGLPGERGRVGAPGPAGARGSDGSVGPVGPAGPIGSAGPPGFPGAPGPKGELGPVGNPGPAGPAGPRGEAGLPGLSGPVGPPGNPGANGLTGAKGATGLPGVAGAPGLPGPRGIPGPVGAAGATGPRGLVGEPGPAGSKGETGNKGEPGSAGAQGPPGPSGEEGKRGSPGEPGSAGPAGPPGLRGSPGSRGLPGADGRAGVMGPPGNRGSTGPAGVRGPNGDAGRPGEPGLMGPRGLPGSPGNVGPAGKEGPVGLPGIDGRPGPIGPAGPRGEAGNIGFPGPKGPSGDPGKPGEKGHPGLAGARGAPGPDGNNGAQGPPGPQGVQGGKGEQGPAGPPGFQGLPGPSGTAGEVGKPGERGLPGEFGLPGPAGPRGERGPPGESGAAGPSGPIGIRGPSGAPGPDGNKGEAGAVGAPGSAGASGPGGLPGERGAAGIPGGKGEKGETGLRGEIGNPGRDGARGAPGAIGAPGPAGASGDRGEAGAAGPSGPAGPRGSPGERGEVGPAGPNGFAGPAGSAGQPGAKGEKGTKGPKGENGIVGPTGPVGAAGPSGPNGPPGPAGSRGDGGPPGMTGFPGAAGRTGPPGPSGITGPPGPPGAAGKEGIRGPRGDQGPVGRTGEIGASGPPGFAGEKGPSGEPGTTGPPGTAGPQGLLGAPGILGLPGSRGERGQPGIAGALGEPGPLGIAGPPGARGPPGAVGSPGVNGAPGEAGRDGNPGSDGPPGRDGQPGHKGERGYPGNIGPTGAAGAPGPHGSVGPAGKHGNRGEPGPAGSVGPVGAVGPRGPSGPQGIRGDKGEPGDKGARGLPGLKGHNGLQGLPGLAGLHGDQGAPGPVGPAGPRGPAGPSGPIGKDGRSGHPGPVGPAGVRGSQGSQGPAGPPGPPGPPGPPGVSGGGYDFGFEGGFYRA
# experimental_details: dried collagen assay
Bridge positions count the residues as written; N and C are the ends. Square brackets hold non-standard residues; d marks the D form. Primed or numbered codes have the meaning given here. Side chains are listed from the residue outwards. Ends that are not written are not given here. Gd^D = GdDOTAGA (gadolinium DOTAGA chelate); Gd^T″ = GdDTPA-thiourea
measurement_label: % bound (%)

As a guide, the following entries are already answered.
{Gd^T″}-GQWHCTTLFPHHYCIYG (disulfide 5-14 (inferred)) [Compound ID 927]
63
{Gd^T″}-GK([Gly-Gd^T″])WHCTTYFPHHYCLYY (disulfide 5-14 (inferred)) [Compound ID 949]
79
{Gd^T″}-GK([Gly-Gd^T″])WHCYTYFPHHYCLY[dY]K(Gd^T″) (disulfide 5-14 (inferred); not fully specified (C-terminus)) [Compound ID 988]
71

[I] {Gd^D}-GK([Gly-Gd^D])QWHCTTYFPHHYCLYG (disulfide 6-15 (inferred)) [Compound ID 961]
[II] {Gd^T″}-GK([Gly-Gd^T″])WHCYTYFPHHYCVYG (disulfide 5-14 (inferred)) [Compound ID 944]
[III] {Gd^T″}-AWHCTTLFPHH[dY]CLYG (disulfide 4-13 (inferred); not fully specified (C-terminus)) [Compound ID 909]
**Q:** I would appreciate it if you could sort these 3 binders by % bound, starting from the smallest number. Write the labels, ordered according to the request.
**A:** III, I, II
